Assay: Kinetic solubility of compound by charged aerosol detection method
Format: physicochemical
Settings: read-out: Kinetic_solubility
observable: solubility kinetic

Query :: # query: solubility kinetic of entry O=C(Nc1nc2cc(F)c(C(F)(F)F)cc2s1)C1CC1
Result :: 36 µM

* * *

Assay: Tmax in C57BL/6 mouse at 50 mg/kg, po after 15 mins to 24 hrs by LC-MS/MS analysis
Type: ADME, organism-based
Conditions: in vivo
observable: Tmax (h)
One number for each entry, in h.

Query :: # query: Tmax of entry O=C(Nc1nc2cc(F)c(C(F)(F)F)cc2s1)C1CC1
Result :: 1.33

* * *

Tested on: Trypanosoma cruzi
Test: Antitrypanosomal activity against Trypanosoma cruzi Tulahuen C4 trypomastigotes harboring beta-galactosidase infected in mouse 3T3 cells after 90 mins by luminescence based assay
Assay type: functional, organism-based
Settings: Tulahuen C4, NIH3T3, 1.5 h
What pIC50 was measured for each of the following?
Give bare numbers, as −log10 of the molar value.

These recorded examples may help you get a feel for the data.
Query :: # query: pIC50 of entry CC(=O)N(CCCN(C)C)c1nc2ccc(C)cc2s1
Result :: 6.63

Query :: Now the same for O=C(Nc1nc2ccc(Cl)cc2s1)C1CC1
Result :: 6.92

// next entry
Query :: # query: pIC50 of entry CN(C)CCCN(C(=O)c1nc2ccccc2s1)c1nc2ccc(F)cc2s1
Result :: 7.00

* * *

Assay: Selectivity index, ratio of IC50 for rat H9c2 cells to IC50 for antitrypanosomal activity against Trypanosoma cruzi Tulahuen trypomastigotes beta-galactosidase infected in rat H9c2 cells
Format: toxicity, cell-based
Details: read-out: Ratio IC50
What selectivity ratio was measured for each of the following?

These recorded examples may help you get a feel for the data.
Query :: # query: selectivity ratio of entry O=C(Nc1nc2ccc(Cl)cc2s1)C1COC1
Result :: > 11

Query :: Now the same for CCCC(=O)Nc1nc2ccc(Cl)cc2s1
Result :: > 11

Query :: Now the same for CCCCN(C(=O)C1CC1)c1nc2ccc(Cl)cc2s1
Result :: 1

Query :: Now the same for CNS(=O)(=O)c1cc2sc(NC(=O)C3CC3)nc2cc1F
Result :: > 2

Query :: Now the same for Cc1cc2nc(NC(=O)C3CC3)sc2cc1C(F)(F)F
Result :: 1

Each compound below has a reported value. Please supply its selectivity ratio.
1. O=C(Nc1nc2ccc([N+](=O)[O-])cc2s1)C1CC1
2. CC(C)(C)c1ccc2nc(NC(=O)C3CC3)sc2c1
3. COc1cc2nc(NC(=O)C3CC3)sc2cc1C(F)(F)F
4. O=C(Nc1nc2ccc(C(F)(F)F)cc2s1)C1CC1
5. O=C(Nc1nc2ccc(Cl)cc2s1)C1CC1

Result ::
1: > 1200; 2: 4; 3: > 2.5; 4: > 500; 5: > 80

Each compound below has a reported value. Please supply its selectivity ratio.
1. Cc1ccc2nc(NC(=O)C3CC3)sc2c1
2. O=S(=O)(Nc1nc2ccc(C(F)(F)F)cc2s1)C1CC1
3. O=C(CCO)Nc1nc2ccc(Cl)cc2s1

Result ::
["> 11", "< 0.13", "> 3"]

* * *

Experiment: AUCt in C57BL/6 mouse at 50 mg/kg, po after 15 mins to 24 hrs by LC-MS/MS analysis
Format: ADME, organism-based
Design: dose 50 mg/kg, time upper 24 hr, time lower 0.25 hr, route oral
Settings: in vivo
observable: AUC(0-t) (ng·h/mL)
Numbers only, in ng·h/mL.

Query :: # query: AUC(0-t) of entry O=C(Nc1nc2cc(F)c(C(F)(F)F)cc2s1)C1CC1
Result :: 31600

* * *

Experiment: Intrinsic clearance in human liver microsomes at 0.5 uM in presence of NADPH measured up to 45 mins by UPLC/MS/MS analysis
Type: ADME, Microsome
Settings: 0.75 h
Mark Not fulfilled for CLH values under 10 mL/min/g, and Fulfilled for everything at or above.

Query :: Threshold query (CLH >= 10 mL/min/g) on O=C(Nc1nc2ccc(C(F)(F)F)cc2s1)C1CC1
Result :: Not fulfilled

Continuing:
Query :: Threshold query (CLH >= 10 mL/min/g) on O=C(Nc1nc2ccc([N+](=O)[O-])cc2s1)C1CC1
Result :: Not fulfilled

Query :: Now the same for O=C(Nc1nc2cc(F)c(C(F)(F)F)cc2s1)C1CC1
Result :: Not fulfilled

Query :: Now the same for O=C(Nc1nc2ccc(Cl)cc2s1)C1CC1
Result :: Not fulfilled

Query :: Now the same for CCc1ccc2nc(NC(=O)C3CC3)sc2c1
Result :: Fulfilled

* * *

Experiment: Apparent permeability in MDCK-MDR1 cells at 3 uM after 60 mins by LC-MS/MS analysis
Type: ADME, cell-based, Canis lupus familiaris
Details: dog
observable: Papp at 1 h, 3 µM
Write the numeric value and append its unit.

Query :: # query: Papp at 1 h, 3 µM of entry O=C(Nc1nc2cc(F)c(C(F)(F)F)cc2s1)C1CC1
Result :: 17.4 ×10⁻⁶ cm/s

* * *

Assay: Clearance in CD-1 mouse at 5 mg/kg, iv after 5 mins to 24 hrs by LC-MS/MS analysis
Format: ADME, organism-based
Conditions: in vivo
observable: clearance (mL/min/kg)
Give bare numbers, in mL/min/kg.

Query :: # query: clearance of entry O=C(Nc1nc2cc(F)c(C(F)(F)F)cc2s1)C1CC1
Result :: 58.3

* * *

Assay: Intrinsic clearance in CD-1 mouse liver microsomes at 0.5 uM in presence of NADPH measured up to 45 mins by UPLC/MS/MS analysis
Assay type: ADME, Microsome
Conditions: 0.75 h
What CLH was measured for each of the following?
Write the numeric value and append its unit.

These recorded examples may help you get a feel for the data.
Query :: # query: CLH of entry O=C(Nc1nc2ccc([N+](=O)[O-])cc2s1)C1CC1
Result :: 3.06 mL/min/g

Query :: Now the same for O=C(Nc1nc2ccc(Cl)cc2s1)C1CC1
Result :: 2.51 mL/min/g

Query :: Now the same for O=C(Nc1nc2cc(F)c(C(F)(F)F)cc2s1)C1CC1
Result :: 5.26 mL/min/g

Each compound below has a reported value. Please supply its CLH.
1. O=C(Nc1nc2ccc(C(F)(F)F)cc2s1)C1CC1
2. CCc1ccc2nc(NC(=O)C3CC3)sc2c1

Result ::
1: 2.71 mL/min/g; 2: 125 mL/min/g

* * *

Assay: Ratio of drug level in blood to plasma in mouse at 1 uM after 1 hr by LC-MS/MS analysis
Format: ADME, cell-free
observable: blood plasma ratio at 1 h, 1 µM
One number for each entry.

Query :: # query: blood plasma ratio at 1 h, 1 µM of entry O=C(Nc1nc2cc(F)c(C(F)(F)F)cc2s1)C1CC1
Result :: 1.2

* * *

What selectivity ratio was measured for each of the following?
Test: Selectivity index, ratio of IC50 for rat H9c2 cells to IC50 for antitrypanosomal activity against Trypanosoma cruzi Tulahuen trypomastigotes beta-galactosidase infected in rat H9c2 cells
Assay type: toxicity, cell-based
Conditions: read-out: Ratio IC50

Query :: # query: selectivity ratio of entry CCS(=O)(=O)c1cc2sc(NC(=O)C3CC3)nc2cc1F
Result :: > 1

Query :: Now the same for CC(C)(C)C(=O)Nc1nc2ccc(Cl)cc2s1
Result :: > 52

Query :: Now the same for CC(C)c1ccc2nc(NC(=O)C3CC3)sc2c1
Result :: > 50

// next entry
Query :: # query: selectivity ratio of entry FC(F)(F)c1ccc2nc(N/N=C/C3CC3)sc2c1
Result :: 5
